Target: EGFR del19/T790M/C797S (Homo sapiens, UniProt P00533, C797S/DEL746-750/T790M)
Sequence (P00533 with tags, fused parts or gaps DEL746-750/T790M/C797S): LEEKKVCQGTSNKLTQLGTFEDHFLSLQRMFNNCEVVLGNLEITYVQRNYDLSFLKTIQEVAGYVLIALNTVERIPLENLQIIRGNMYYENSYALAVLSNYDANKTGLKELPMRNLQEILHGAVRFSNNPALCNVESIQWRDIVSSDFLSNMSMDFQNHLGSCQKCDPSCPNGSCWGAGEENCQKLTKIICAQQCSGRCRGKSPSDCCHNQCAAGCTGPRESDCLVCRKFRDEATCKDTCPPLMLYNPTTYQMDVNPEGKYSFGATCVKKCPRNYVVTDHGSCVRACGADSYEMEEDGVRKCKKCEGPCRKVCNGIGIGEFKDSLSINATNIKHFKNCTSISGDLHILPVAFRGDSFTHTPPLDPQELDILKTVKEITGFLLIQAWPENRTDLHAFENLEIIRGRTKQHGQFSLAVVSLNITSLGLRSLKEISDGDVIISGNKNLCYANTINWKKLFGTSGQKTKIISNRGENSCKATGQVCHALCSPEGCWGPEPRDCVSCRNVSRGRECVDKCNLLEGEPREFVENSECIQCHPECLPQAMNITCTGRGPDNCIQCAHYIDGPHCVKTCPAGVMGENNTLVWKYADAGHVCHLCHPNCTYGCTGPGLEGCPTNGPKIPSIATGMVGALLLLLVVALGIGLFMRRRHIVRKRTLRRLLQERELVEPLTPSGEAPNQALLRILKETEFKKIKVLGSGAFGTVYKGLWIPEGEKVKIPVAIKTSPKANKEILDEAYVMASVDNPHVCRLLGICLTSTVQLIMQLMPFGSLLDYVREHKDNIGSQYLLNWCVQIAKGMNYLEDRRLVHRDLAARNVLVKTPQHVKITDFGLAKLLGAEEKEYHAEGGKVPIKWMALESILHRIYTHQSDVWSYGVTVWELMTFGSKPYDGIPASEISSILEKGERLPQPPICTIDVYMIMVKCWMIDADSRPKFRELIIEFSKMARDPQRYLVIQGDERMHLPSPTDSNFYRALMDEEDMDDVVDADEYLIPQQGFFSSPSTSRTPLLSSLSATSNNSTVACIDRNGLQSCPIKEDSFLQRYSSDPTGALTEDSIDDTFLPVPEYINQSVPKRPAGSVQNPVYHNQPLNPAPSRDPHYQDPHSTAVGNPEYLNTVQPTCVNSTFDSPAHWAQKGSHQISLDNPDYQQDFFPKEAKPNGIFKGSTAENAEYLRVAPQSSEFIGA
Assay: Biochemical EGFR kinase assay (Lance Ultra TR-FRET), triple mutant del19/T790M/C797S
Conditions: ATP at Km; read-out: IC50 del19/T790M/C797S, Km ATP
parameterMeasured: IC50 (nM)

{"molecule": "CN(C)C[C@H]1CC[C@@H](Nc2cc(Nc3ccnc(-c4cnn(S(=O)(=O)C5CC5)c4)n3)ncc2-c2cccc(F)n2)CC1 [Example 274]", "parameterMeasured": "IC50", "recordedMeasurement": 0.02}
{"molecule": "CC(F)(F)c1ccc(-c2cnc(Nc3ccnc(-c4cnn(S(=O)(=O)C5CC5)c4)n3)cc2N[C@H]2CC[C@@](C)(O)CC2)nc1 [Example 292]", "parameterMeasured": "IC50", "recordedMeasurement": 0.6}
{"molecule": "CC(C)Nc1cc(Nc2ccnc(-c3cnn(S(=O)(=O)C4CC4)c3)n2)ncc1-c1ccc(C(C)(O)C(F)(F)F)cn1 (stereo not drawn) [Example 295]", "parameterMeasured": "IC50", "recordedMeasurement": 10.4}
{"molecule": "CN1CCN(C(=O)c2ccc(-c3cnc(Nc4ccnc(-c5cnn(S(=O)(=O)C6CC6)c5)n4)cc3N[C@H]3CC[C@@H](CO)CC3)nc2)CC1 [Example 202]", "parameterMeasured": "IC50", "recordedMeasurement": 0.2}
{"molecule": "CC(C)(O)[C@H]1CC[C@@H](Nc2cc(Nc3ccnc(-c4cnn(S(=O)(=O)C5CC5)c4)n3)ncc2-c2cc(OCCN3CCOCC3)ccn2)CC1 [Example 213]", "parameterMeasured": "IC50", "recordedMeasurement": 1.2}
{"molecule": "O=S(=O)(C1CC1)n1cc(-c2nccc(Nc3cc(NC4CCC(F)CC4)c(-c4ccc(N5CCC(F)(F)CC5)nn4)cn3)n2)cn1 (stereo not drawn) [Example 267]", "parameterMeasured": "IC50", "recordedMeasurement": 15.4}
{"molecule": "CC(F)(F)c1ccc(-c2cnc(Nc3ccnc(-c4cnn(S(=O)(=O)C5CC5)c4)n3)cc2N[C@H]2CC[C@@H](C(C)(C)O)CC2)nc1 [Example 242]", "parameterMeasured": "IC50", "recordedMeasurement": 4.8}
{"molecule": "Cc1ccc(-c2cnc(Nc3ccnc(-c4cnn(S(=O)(=O)C5CC5)c4)n3)cc2N[C@H]2CC[C@@H](C(C)(C)O)CC2)nc1F [Example 180]", "parameterMeasured": "IC50", "recordedMeasurement": 5.8}
{"molecule": "CC1(O)CCC(Nc2cc(Nc3ccnc(-c4cnn(S(=O)(=O)C5CC5)c4)n3)ncc2-c2ccc(C(C)(O)C(F)(F)F)cn2)CC1 (stereo not drawn) [Example 230]", "parameterMeasured": "IC50", "recordedMeasurement": 1.1}
{"molecule": "O=S(=O)(C1CC1)n1cc(-c2nccc(Nc3cc(N[C@H]4CC[C@@H](F)CC4)c(-c4cnc(OC5CCOCC5)cn4)cn3)n2)cn1 [Example 151]", "parameterMeasured": "IC50", "recordedMeasurement": 0.8}
{"molecule": "CN1CCC(Oc2ccc(-c3cnc(Nc4ccnc(-c5cnn(S(=O)(=O)C6CC6)c5)n4)cc3NC3CCN(CCF)CC3)nc2)CC1 [Example 256]", "parameterMeasured": "IC50", "recordedMeasurement": 0.1}
{"molecule": "CC(C)(O)c1ccc(-c2cnc(Nc3ccnc(-c4cnn(S(=O)(=O)C5CC5)c4)n3)cc2NC2CCN(CC(F)F)CC2)nc1 [Example 178]", "parameterMeasured": "IC50", "recordedMeasurement": 0.7}

All values here come from patent US12258328B2.
